Reference for the values: the supplement of paper PMC13380429

Test system: Vero E6 infected with SARS-CoV-2
test method notes: inhibition of SARS-CoV-2 cytopathic effect; higher = more antiviral protection, active = above 15
experimental context: 1 nM; 48 h
# inhibition of SARS-CoV-2 cytopathic effect annotations
Report only the number, with the unit % understood.

// known answers, use as guide
{"compound": "CC1CS(=O)(=O)CCN1/N=C/c1ccc([N+](=O)[O-])o1 (stereo not drawn)", "u": "%", "readout number": -0.09}
{"compound": "COc1ccc(CCO[C@@H]2CCCC[C@H]2N2CC[C@@H](O)C2)cc1OC", "u": "%", "readout number": -0.46}
{"compound": "C#C[C@]1(O)CC[C@H]2[C@@H]3CCC4=CC(=O)CC[C@]4(C)[C@H]3CC[C@@]21C", "u": "%", "readout number": 2.99}
{"compound": "Cc1cccc(NC(=O)c2ccc(C(F)(F)F)cc2C(=O)O)n1", "u": "%", "readout number": 0.74}

# input State the recorded inhibition of SARS-CoV-2 cytopathic effect for this entry: CC(C)(N)c1cc(C(=O)N[C@@H]2CCc3ccc(Oc4ccnc5c4CCC(=O)N5)cc3C2)cc(C(F)(F)F)c1
# output 0.3

# input State the recorded inhibition of SARS-CoV-2 cytopathic effect for this entry: CSc1ccc(C(=O)N[C@@H]2CCCC[C@@H]2NC(=O)CNC(=O)c2cc(C(F)(F)F)ccc2NC(=O)NC(C)C)cc1
# output 4.3

# input State the recorded inhibition of SARS-CoV-2 cytopathic effect for this entry: Cc1cccn2c(=O)c(/C=C(\C#N)c3nc4ccccc4s3)c(Oc3ccc(F)cc3)nc12
# output -2.85

# input State the recorded inhibition of SARS-CoV-2 cytopathic effect for this entry: CC(C)(C)S(=O)(=O)N[C@H]1CC[C@H](C(=O)Nc2ccc(C(F)(F)F)cn2)CC1
# output 2.37

* * *

Tested on: Vero E6 infected with SARS-CoV-2
test method notes: inhibition of SARS-CoV-2 cytopathic effect; higher = more antiviral protection, active = above 15
experimental context: 833.33 nM; 48 h
metric: inhibition of SARS-CoV-2 cytopathic effect (%)
Report only the number, with the unit % understood.

// known answers, use as guide
{"compound": "CC(=O)Oc1cc(C(F)(F)F)ccc1C(=O)O", "u": "%", "readout number": 0.3}
{"compound": "CCCCN1CCCC1CNC(=O)c1cc(C#N)c2ccccc2c1OC (configuration not stated) [nafadotride]", "u": "%", "readout number": 0.59}
{"compound": "COc1ccc(CCNCC(O)COc2cccc(C)c2)cc1OC (configuration not stated)", "u": "%", "readout number": -3.25}
{"compound": "CC1(CN2CCC(n3c(=O)[nH]c4ccccc43)CC2)OCc2ccccc2-n2cccc21 (configuration not stated) [zaldaride]", "u": "%", "readout number": -2.81}
{"compound": "Cc1cc(-c2ccc(CC(=O)Nc3ccc(-c4cccnc4)cc3)cc2)ccn1", "u": "%", "readout number": 4.57}

# input State the recorded inhibition of SARS-CoV-2 cytopathic effect for this entry: COC(=O)C[C@](O)(CCC(C)(C)O)C(=O)O[C@@H]1C(OC)=C[C@]23CCCN2CCc2cc4c(cc2[C@H]13)OCO4
# output 19.9

# input State the recorded inhibition of SARS-CoV-2 cytopathic effect for this entry: CCCNC(C)(C)COC(=O)c1ccccc1
# output -1.75

# input State the recorded inhibition of SARS-CoV-2 cytopathic effect for this entry: Nc1nc(F)nc2c1ncn2[C@@H]1O[C@H](COP(=O)(O)O)[C@@H](O)[C@@H]1O [fludarabine-phosphate]
# output 1.79

# input State the recorded inhibition of SARS-CoV-2 cytopathic effect for this entry: CC=CC1=C(C(=O)O)N2C(=O)[C@@H](NC(=O)[C@H](N)c3ccc(O)cc3)[C@H]2SC1 (mixture of isomers)
# output -0.77

# input State the recorded inhibition of SARS-CoV-2 cytopathic effect for this entry: O=C(Nc1ccc([N+](=O)[O-])cc1O)Nc1ccccc1Br
# output 0.15

# input State the recorded inhibition of SARS-CoV-2 cytopathic effect for this entry: C=C1C(=O)O[C@@H]2[C@H]3O[C@]3(C)CC/C=C(\C)CC[C@@H]12 [parthenolide-(alternate-stereo)]
# output 2.8

# input State the recorded inhibition of SARS-CoV-2 cytopathic effect for this entry: O=c1ccn([C@@H]2O[C@H](COP(=O)(O)OP(=O)(O)OP(=O)(O)O)[C@@H](O)[C@H]2O)c(=O)[nH]1
# output 2.04
